Tested Target: HLA-A*6801 (Homo sapiens, UniProt P04439, A269V/D185E/E176V/E277Q/E87N/F33Y/G231S/I121M/I166T/I218V/L180W/L300P/L318F/N151K/P208A/P217A/Q86R/R169H/T345S)
Assay Procedure: biochemical
Assay type: binding
pIC50: −log10 of the molar value. No end group written: not given here.

# Sequence Chain, pIC50
measured = [
    ("YLFNQHIKK", 7.85),
    ("YTFVFADLR", 8.54),
    ("SFYGTTLEK", 6.30),
    ("STLPEGPGPGR", 7.52),
    ("LLFYSKVRR", 7.96),
    ("LLFYSKVRKYR", 7.82),
    ("ETNPFGICK", 7.85),
    ("VTLDIQSTK", 6.63),
    ("YSVYGTTLER", 7.72),
    ("GTRQARRNRK", 5.11),
    ("QAGFFLLTR", 8.28),
    ("SVYGTTLER", 7.68),
    ("LVYSKVRKYR", 7.51),
    ("STLPGPGPGRR", 7.60),
    ("FSYDLRLNK", 7.82),
]
